Target: rat adrenergic α1B receptor (Rattus norvegicus)
Construct: rat adrenergic α1B receptor obtained from Wistar Rat liver; from tissue; host or cells: Wistar rat liver
Sequence (P15823 1-515): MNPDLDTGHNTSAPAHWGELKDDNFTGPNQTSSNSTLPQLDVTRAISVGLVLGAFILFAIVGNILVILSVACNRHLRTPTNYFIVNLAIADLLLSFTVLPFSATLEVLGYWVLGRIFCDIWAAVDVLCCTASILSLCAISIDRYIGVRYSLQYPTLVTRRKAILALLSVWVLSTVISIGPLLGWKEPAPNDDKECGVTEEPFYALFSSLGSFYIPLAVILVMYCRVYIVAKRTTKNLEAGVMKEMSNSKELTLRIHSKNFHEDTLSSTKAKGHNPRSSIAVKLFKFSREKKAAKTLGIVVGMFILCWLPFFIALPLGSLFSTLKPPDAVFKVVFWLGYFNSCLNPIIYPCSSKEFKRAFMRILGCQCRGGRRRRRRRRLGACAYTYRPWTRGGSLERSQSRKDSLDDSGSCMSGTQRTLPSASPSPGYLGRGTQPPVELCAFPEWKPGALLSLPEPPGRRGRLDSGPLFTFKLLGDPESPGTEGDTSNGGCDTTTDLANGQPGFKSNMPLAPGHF
Experiment: Radioligand binding, adrenergic α1B ([3H]Prazosin)
Details: compound at 0.1 μM; [3H]Prazosin; repeat assays, each datapoint shown; 0.1 µM
experimental-readout: Percentage inhibition of ligand binding, Adrenergic α1B (%)
Express the result in % but write the number alone.

Find the recorded Percentage inhibition of ligand binding, Adrenergic α1B belonging to Cc1ccc2c(c1)c1c(n2CC(O)c2ccc(F)cc2)CCN(C)C1 (stereo not shown) [30a] and report it. 57

Now the same for Cc1ccc2c(c1)c1c(n2CC(O)c2ccncc2)CCN(C)CC1 (single isomer, unassigned) [13a] 75

Now the same for Cc1cnc2c(c1)c1c(n2CC(C)(O)c2cccnc2)CCN2CCCC12 (single isomer, unassigned) [26b] 15

Now the same for CN1CCc2c(c3cc(Cl)ccc3n2CC(O)c2ccncc2)C1 (single isomer, unassigned) [4a] 57

---

target: human recombinant adrenergic α1D receptor (Homo sapiens); construct: expressed in transfected cells; host or cells: HEK-293; test: Radioligand binding, adrenergic α1D ([3H]Prazosin); settings: 0.1 μM compound; read-out: Percentage inhibition of ligand binding, Adrenergic α1D
Sequence (P25100 whole entry): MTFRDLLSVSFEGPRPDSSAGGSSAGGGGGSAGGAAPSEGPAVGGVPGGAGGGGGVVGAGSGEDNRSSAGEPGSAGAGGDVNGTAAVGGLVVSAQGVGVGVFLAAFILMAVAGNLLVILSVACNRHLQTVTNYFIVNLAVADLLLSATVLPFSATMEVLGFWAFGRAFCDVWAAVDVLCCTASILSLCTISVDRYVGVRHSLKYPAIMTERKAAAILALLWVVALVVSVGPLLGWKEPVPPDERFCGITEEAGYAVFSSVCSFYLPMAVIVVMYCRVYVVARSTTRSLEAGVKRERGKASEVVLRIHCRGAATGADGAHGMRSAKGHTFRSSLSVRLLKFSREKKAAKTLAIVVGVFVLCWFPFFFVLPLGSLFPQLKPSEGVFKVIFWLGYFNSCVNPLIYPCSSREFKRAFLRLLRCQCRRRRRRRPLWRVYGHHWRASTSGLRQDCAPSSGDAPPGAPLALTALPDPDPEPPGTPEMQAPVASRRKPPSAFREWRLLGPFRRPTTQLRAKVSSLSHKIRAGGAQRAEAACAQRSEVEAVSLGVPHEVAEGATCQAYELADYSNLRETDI
Give inhibition at 0.1 µM for every item shown.
Express the result in % but write the number alone.

Find the recorded inhibition at 0.1 µM belonging to CCc1ccc(/C(C)=C/n2c3c(c4cc(C)ccc42)CN(C)CC3)cn1 [II-77] and report it. 66

Now the same for CCCc1ccc(/C(C)=C/n2c3c(c4cc(C)ccc42)CN(C)CC3)cn1 [compound 329] 78

Now the same for Cc1ccc2c(c1)c1c(n2CNc2ccccc2)CCN(C)C1 [compound 324] 31

Now the same for CN1CCc2c(c3cc(Cl)c(Cl)cc3n2CC(C)(O)c2ccncc2)C1 (centres unmarked) [compound 253] 18

Now the same for COc1cc(/C(C)=C/n2c3c(c4cc(C)ccc42)CN(C)CC3)ccn1 [compound 269] 44

Now the same for Cc1ccc2c(c1)c1c(n2CCc2cccc(N(C)C)c2)CCN(C)C1 [compound 298] 17

Now the same for C/C(=C\n1c2c(c3cc(C)ccc31)CN(C)CC2)c1cc(C)cs1 [compound 285] 71

Now the same for C=CCC1(C)CN(C)Cc2c1n(/C=C(\C)c1ccc(F)cc1)c1ccc(C)cc21 (centres unmarked) [compound 274] 25

Now the same for C/C(=C/n1c2c(c3cc(C)ccc31)CN(C)CC2)c1sccc1C [compound 287] 69

Now the same for Cc1ccc2c(c1)c1c(n2C2=C(c3sccc3C)CCC2)CCN(C)C1 [compound 302] 17

Now the same for Cc1ccc2c(c1)c1c(n2C2=C(c3ccnn3C)CCC2)CCN(C)C1 [compound 309] 40

Now the same for Cc1ccc2c(c1)c1c(n2/C=C/c2cccc3cnccc23)CCN(C)C1 [compound 316] 81

Now the same for COc1ccc(C(C)(O)Cn2c3c(c4cc(C)ccc42)CN(C)CC3)cc1 (centres unmarked) [254a] 36

Now the same for Cc1ccc2c(c1)c1c(n2C#Cc2ccncc2)CCN(C)C1 [compound 264] 46

Now the same for C/C(=C\n1c2c(c3cc(C)ccc31)CN(C)CC2)c1ccccn1 [compound 259] 53

Now the same for C/C(=C\n1c2c(c3cc(Cl)ccc31)CN(C)CC2)c1cccc(S(C)(=O)=O)c1 [compound 296] 33

Now the same for CSc1cccc(/C(C)=C/n2c3c(c4cc(Cl)ccc42)CN(C)CC3)c1 [compound 295] 7

Now the same for C/C(=C\n1c2c(c3cc(Cl)ccc31)CCN(C)CC2)c1cccnc1 [compound 244] 42

Now the same for Cc1ccc2c(c1)c1c(n2CCc2ccc(C)nc2)C(c2ccccc2)N(C)CC1 (centres unmarked) [compound 314] 71

Now the same for COc1ccc(/C(C)=C/n2c3c(c4cc(C)ccc42)CCN(C)CC3)cc1 [compound 251] 53

Now the same for Cc1ccc2c(c1)c1c(n2CC(O)(c2ccccc2)c2ccccc2)CCN(C)C1 [compound 263] 6

Now the same for C/C(=C/n1c2c(c3cc(C)ccc31)CN(C)CC2)c1ccc(F)nc1 [compound 276] 81

Now the same for C/C(=C/n1c2c(c3cc(C)ccc31)CN(C)CC2)c1ccc(C)s1 [compound 277] 84

Now the same for Cc1ccc(CCn2c3c(c4ccc(Cl)cc42)CN(C)CC3)cn1 [compound 315] 3

Now the same for Cc1ccc2c(c1)c1c(n2C2=C(c3cc4ccccc4s3)CCC2)CCN(C)C1 [compound 305] 41

Now the same for Cc1ccc2c(c1)c1c(n2C2=C(c3cccnc3)CCC2)CCN(C)C1 [compound 300] 29

Now the same for COc1ccc(/C(C)=C/n2c3c(c4cc(C)ccc42)CN(C)CC3)cn1 [compound 266] 72

Now the same for C/C(=C/n1c2c(c3cc(C)ccc31)CN(C)CC2)c1ccc(F)cc1F [compound 258] 74

Now the same for C/C(=C\n1c2c(c3cc(C)cc(C)c31)CN(C)CC2)c1ccncc1 [compound 312] 50
